# Assay Remarks: Phase 1 single ascending dose trial of intravenous HBI-3000: pharmacokinetics
# Type: in vivo
# Study Conditions: human, plasma; 180 mg single iv infusion over 30 min, healthy subjects, N=6
Counter-ions that a name gives are not always drawn.
Value Kind: AUC(0-inf)
Answer as a quantity: numeral, then unit.

Give AUC(0-inf) for COc1ccc(S(=O)(=O)NCc2cc(CN3CCCC3)c(O)c(CN3CCCC3)c2)cc1 [HBI-3000, sulcardine sulfate]
2050 ng·h/mL

---

# Assay Remarks: Phase 1 single ascending dose trial of intravenous HBI-3000: pharmacokinetics
# Format: in vivo
# Study Conditions: human, plasma, iv, 60 mg, 60 mg single iv infusion over 30 min, healthy subjects, N=6; read-out: AUC (0-last)
Counter-ions that a name gives are not always drawn.
Value Kind: AUC(0-t) (ng·h/mL)
Record the value in ng·h/mL, omitting the unit from your answer.

Give AUC(0-t) for COc1ccc(S(=O)(=O)NCc2cc(CN3CCCC3)c(O)c(CN3CCCC3)c2)cc1 [HBI-3000, sulcardine sulfate]
306

---

# Assay Remarks: Phase 1 single ascending dose trial of intravenous HBI-3000: pharmacokinetics
# Type: in vivo
# Study Conditions: human, plasma; 360 mg single iv infusion over 30 min, healthy subjects, N=5; read-out: Tmax Mean
Structures can show the parent of a compound that is named as a salt.
Value Kind: Tmax (min)
Record the value in min, omitting the unit from your answer.

Give Tmax for COc1ccc(S(=O)(=O)NCc2cc(CN3CCCC3)c(O)c(CN3CCCC3)c2)cc1 [HBI-3000, sulcardine sulfate]
27

---

# Assay Remarks: Phase 1 single ascending dose trial of intravenous HBI-3000: pharmacokinetics
# Type: in vivo
# Study Conditions: human, plasma, iv, 600 mg, 600 mg single iv infusion over 30 min, healthy subjects, N=12; read-out: AUC (0-24)
Counter-ions that a name gives are not always drawn.
Value Kind: AUC(0-t) (ng·h/mL)
Record the value in ng·h/mL, omitting the unit from your answer.

Give AUC(0-t) for COc1ccc(S(=O)(=O)NCc2cc(CN3CCCC3)c(O)c(CN3CCCC3)c2)cc1 [HBI-3000, sulcardine sulfate]
5810

---

# Assay Remarks: Phase 1 single ascending dose trial of intravenous HBI-3000: pharmacokinetics
# Format: in vivo
# Study Conditions: human, plasma; 20 mg single iv infusion over 30 min, healthy subjects, N=6
Structures can show the parent of a compound that is named as a salt.
Value Kind: half-life (min)
Record the value in min, omitting the unit from your answer.

Give half-life for COc1ccc(S(=O)(=O)NCc2cc(CN3CCCC3)c(O)c(CN3CCCC3)c2)cc1 [HBI-3000, sulcardine sulfate]
37.2

---

# Assay Remarks: Phase 1 single ascending dose trial of intravenous HBI-3000: pharmacokinetics
# Type: in vivo
# Study Conditions: human, plasma, iv, 360 mg, 360 mg single iv infusion over 30 min, N=5, as used for ΔΔECG model; read-out: Cmax (Table 2)
Where a name gives a salt, the structure may show the parent alone.
Value Kind: Cmax (ng/mL)
Record the value in ng/mL, omitting the unit from your answer.

Give Cmax for COc1ccc(S(=O)(=O)NCc2cc(CN3CCCC3)c(O)c(CN3CCCC3)c2)cc1 [HBI-3000, sulcardine sulfate]
3120

---

# Assay Remarks: Phase 1 single ascending dose trial of intravenous HBI-3000: pharmacokinetics
# Type: in vivo
# Study Conditions: human, plasma; 600 mg single iv infusion over 30 min, healthy subjects, N=12
# Experimental: HBI-3000 (sulcardine sulfate) was administered to human subjects according to the protocol provided in (Clinical Trials.gov Identifier: NCT03397641. That protocol is incorporated herein by reference in its entirety. Objective: Provided herein are the safety, tolerability, pharmacokinetics and electrocardiogram (ECG) results of a Phase 1 single ascending dose trial of intravenous (IV) HBI-3000 in healthy subjects. […]
Where a name gives a salt, the structure may show the parent alone.
Value Kind: AUC(0-inf)
Answer as a quantity: numeral, then unit.

Give AUC(0-inf) for COc1ccc(S(=O)(=O)NCc2cc(CN3CCCC3)c(O)c(CN3CCCC3)c2)cc1 [HBI-3000, sulcardine sulfate]
7580 ng·h/mL
